Biological target: EpoR (Homo sapiens, UniProt P19235)
Construct: host or cells: cells included in the PathHunter eXpress EpoR-JAK2 Functional Assay Kit
Sequence (P19235 25-508): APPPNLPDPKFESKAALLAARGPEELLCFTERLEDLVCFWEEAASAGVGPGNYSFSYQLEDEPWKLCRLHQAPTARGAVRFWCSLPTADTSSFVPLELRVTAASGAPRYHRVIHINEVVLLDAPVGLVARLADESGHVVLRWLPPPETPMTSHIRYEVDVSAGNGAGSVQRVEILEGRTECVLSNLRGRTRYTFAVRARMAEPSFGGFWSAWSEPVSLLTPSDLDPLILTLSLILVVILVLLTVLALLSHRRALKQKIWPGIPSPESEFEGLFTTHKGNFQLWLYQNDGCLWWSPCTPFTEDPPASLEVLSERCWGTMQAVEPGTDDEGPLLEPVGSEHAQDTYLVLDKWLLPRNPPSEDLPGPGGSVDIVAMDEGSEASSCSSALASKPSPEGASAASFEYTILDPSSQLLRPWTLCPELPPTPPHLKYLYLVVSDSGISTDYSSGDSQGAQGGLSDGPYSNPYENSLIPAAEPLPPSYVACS
Experiment: EpoR activation ability, PathHunter eXpress EpoR-JAK2 Functional Assay Kit
Type: cell-based
Positions of bridges follow the written chain, without caps; N, C: chain ends. No end group written: not given here.
metric: EC50 (pM)
Numbers only, in pM.

Q. What is its EC50 for EpoR (Homo sapiens, UniProt P19235)? Entry: AETGGLYACHMGPMTWVCQPLRGGGGGSGGGGGLYACHMGPMTWVCQPLRG (disulfide 9-18, 37-46) [AET-EPO-GS8]
A. 103

***
Q. What is its EC50 for EpoR (Homo sapiens, UniProt P19235)? Entry: AETGGLYACHMGPMTWVCQPLRGGGGGSGGGGSGGGGSGGGGSGGGGLYACHMGPMTWVCQPLRG (disulfide 9-18, 51-60) [AET-EPO-GS22]
A. 216
